- test-method-notes: Selectivity ratio of IC50 for cytotoxicity against human WPMY-1 cells to IC50 for antiproliferative activity against human PC-3 cells
- Format: toxicity, cell-based
- run-conditions: WPMY-1 cells and PC-3 cells, read-out: Ratio IC50
attribute-measured: selectivity ratio

CC(C)n1ncc2c(C(=O)NCc3cn(Cc4ccccc4)nn3)cccc21 ... 4.42

// next entry
Q: # selectivity ratio lookup, item CNC(=O)c1ccc(N2C(=S)N(c3ccc(C#N)c(C(F)(F)F)c3)C(=O)C2(C)C)cc1F [ENZALUTAMIDE]
Result: 2.49

* * *

# IC50 at 72 h per record follows
- test-method-notes: Cytotoxicity against human WPMY-1 cells assessed as inhibition of cell growth incubated for 72 hrs by MTT assay
- Assay type: toxicity, cell-based
I only need the number, in µM, no unit after it.

CNC(=O)c1ccc(N2C(=S)N(c3ccc(C#N)c(C(F)(F)F)c3)C(=O)C2(C)C)cc1F [ENZALUTAMIDE] ... 61.4

Q: What does the data say about its IC50 at 72 h? Entry: CC(C)n1ncc2c(C(=O)NCc3cn(Cc4ccccc4)nn3)cccc21
Result: 20.3
